src = PubChem BioAssay (NCI)

tested on: PC-3 prostate; assay: NCI tumour cell line growth inhibition, 48 h
Where a SMILES comes first, the peptide text is derived from it. [ ]: non-standard residue; d: D form. pGlu = O=C1CC[CH](C(=O)O)N1
Readout: TGI

Molecule	Measured on	Val
COc1ccc(-c2nn(-c3cccc(Cl)c3)cc2-c2c(C#N)c(=O)n3[nH]c(-c4ccc(C)cc4)nc3c2C#N)cc1	PC-3 prostate	9.26 µM
O=C(CCc1ccc(O)c(O)c1)NCCc1ccc(O)c(O)c1	PC-3 prostate	> 100 µM
CC(NC(=O)C(Cc1cnc[nH]1)NC(=O)C1CCC(=O)N1)C(N)=O (stereo not drawn) ([pGlu]-His-Ala-NH2; configuration not given here)	PC-3 prostate	> 100 µM
Cc1cc(C)c2c(=N)c3ccccc3n(CCCCCCn3c4ccccc4c(=N)c4c(C)cc(C)nc43)c2n1	PC-3 prostate	2.81 µM
CCOC(=O)C1C[C@H]2CO[C@H](c3ccccc3)N2C1=O (some centres undefined)	PC-3 prostate	> 100 µM

Provide the reported TGI of each entry below, same order.
1. CC(C)[NH-].CC(C)[NH-].O.O.[Cl][Pt+2][Cl]
2. Cn1cc(-c2nc(-c3c[nH]c4ccncc34)cs2)c2cc(F)ccc21
3. COc1cc2c(cc1OC)C(CC1(O)CCCCC1)N(S(=O)(=O)c1ccc(C)cc1)CC2 (centres undefined)
4. CCOC(=O)C1=CC(C)(C(=O)OCC)Nc2c(nc(SC)n(C)c2=O)N1 (centres undefined)
5. COC12OC3CC4(C)C(=CC3OC(OC(C)C1O)C2O)CCC1C4CCC2(C)C(c3ccc(=O)oc3)CCC12O (centres undefined)

["298 µM", "3.17 µM", "> 10 µM", "> 10 µM", "0.00214 µM"]

* * *

test system: SNB-75 CNS; assay: NCI tumour cell line growth inhibition, 48 h
Where a SMILES comes first, the peptide text is derived from it. [ ]: non-standard residue; d: D form. pGlu = O=C1CC[CH](C(=O)O)N1
For each of the compounds below, state its TGI.

Take a look at these entries with their results.
Compound	Val
Nc1nn(CC(O)CO)c(=O)s1 (stereo not given)	> 100 µM
S=c1nc2sc3c(c2c(Nc2ccc(Br)cc2)[nH]1)CCN(N1CCc2c(sc4nc(=S)[nH]c(Nc5ccc(Br)cc5)c24)C1)C3	> 50 µM
CNc1ncnc2c1nnn2C	> 100 µM

For each of the items listed, what is its TGI?
1. COc1cc(C2c3cc4c(cc3OC3(OC)COC(=O)C23)OCO4)cc(OC)c1OC (stereo not given)
2. COc1ccc2c(c1)CCc1[nH]nc(-c3cc(OC)c(OC)c(OC)c3)c1-2
3. C[n+]1c2ccccc2c(Nc2ccc(NS(=O)(=O)CCCCN=C(N)N)cc2)c2ccc(N)cc21
4. O=C1C2=C(CCCCC2)C2CCCCC12O (stereo not given)
5. COC1=C2C[C@H](O)C(C)C[C@@]2(OC)OC1=O (stereo not given in full)

> 100 µM
26.1 µM
> 100 µM
> 100 µM
> 100 µM

Give TGI for all compounds that follow.
1. CN1C(=O)C(=Cc2cn(Cc3ccccc3)c3ccccc23)C(=O)N(C)C1=O
2. CC(NC(=O)C(Cc1cnc[nH]1)NC(=O)C1CCC(=O)N1)C(N)=O (stereo not drawn) ([pGlu]-His-Ala-NH2; configuration not given here)
3. O=C1OC(c2ccc(Cl)cc2)(c2ccc(Cl)cc2)c2c1ccc1ccccc21
4. CCCCCCCCCCCCCCCCCCOc1ccc(/C=C/C2=[N+](CCCl)CCO2)cc1
5. C=CC[C@@H]1C=C[C@@H](C(=O)OC)n2c(=O)n(-c3ccccc3)c(=O)n21
6. COC(=O)[C@@]12OC[C@]34C([C@@H](O)C1O)[C@@]1(C)CC(=O)C(O)=C(C)C1C[C@H]3OC(=O)[C@H](OC(=O)/C=C(/c1ccccc1)C(F)(F)F)[C@H]42 (stereo not given in full)
7. CC(C)(O)[C@@H]1CC[C@@]2(C)CCC[C@H](O)[C@H]2C1

["> 100 µM", "> 100 µM", "> 100 µM", "> 100 µM", "> 100 µM", "18.6 µM", "> 100 µM"]

Parameters: items (list). Returns: TGI for each item.
1. O=c1cc(-c2ccccc2)[nH]c2c(Cl)cccc12
2. Clc1cccc(N2CCN(CCN3CCc4c([nH]c5ccccc45)C3c3cccnc3)CC2)c1 (stereo not given)
3. CO[C@H]1C[C@H](n2cc(C)c(=O)[nH]c2=O)O[C@@H]1CO
4. CC(=O)C1COC(O)C1C (stereo not given)
5. O=S(=O)(O)c1cc(Nc2ccnc3ccccc23)c2c(S(=O)(=O)O)cc(S(=O)(=O)O)cc2c1

54.8 µM
> 76.4 µM
> 100 µM
70.4 µM
> 100 µM
